# Experimental target: T1, Human FRα ECD-Avi-His (human, biotin on the Avi-tag (BirA) in the HTRF assays)
# T1 construct: also called biotinylated human FRα; folate receptor alpha
# T1 sequence (chain, as listed by the source limits assumed): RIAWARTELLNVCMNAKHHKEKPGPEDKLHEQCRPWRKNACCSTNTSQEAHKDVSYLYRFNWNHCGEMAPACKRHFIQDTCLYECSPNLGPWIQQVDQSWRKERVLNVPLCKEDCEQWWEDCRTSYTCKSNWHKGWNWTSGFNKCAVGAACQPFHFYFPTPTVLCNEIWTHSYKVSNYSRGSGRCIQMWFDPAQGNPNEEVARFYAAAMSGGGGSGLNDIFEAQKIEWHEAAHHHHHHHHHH
# Procedure summary: HTRF epitope competition assay, geomean n>2; competitor DyLight 650 labelled Comparator Antibody 2
Measurement label: IC50 (pM)

[[record]]
binder = "AB1370095 hIgG1 (antibody, V domains shown) VH: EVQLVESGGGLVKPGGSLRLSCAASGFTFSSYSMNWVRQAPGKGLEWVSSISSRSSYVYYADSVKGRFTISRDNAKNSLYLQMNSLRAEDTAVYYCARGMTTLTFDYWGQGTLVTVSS VL: DIQMTQSPSSLSASVGDRVTITCRASQGISSFLAWFQQKPGKAPKSLIYAASSLQSGVPSKFSGSGSGTDFTLTISSLQPEDFATYYCQQYNSYPLTFGGGTKVEIKR"
unit_annotation = "pM"
quantitative_readout = 4150

[[record]]
binder = "AB1370083 hIgG1 (antibody, V domains shown) VH: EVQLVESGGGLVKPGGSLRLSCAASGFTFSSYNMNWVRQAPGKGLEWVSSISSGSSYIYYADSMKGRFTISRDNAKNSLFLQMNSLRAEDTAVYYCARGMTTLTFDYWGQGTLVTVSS VL: DIQMTQSPSSLSASVGDRVTITCRASQGISTFLAWFQQKPGKAPKSLIYAASSLQSGVPSKFSGSGSETDFTLTISSLQPEDFATYYCQQYISYPLTFGGGTKVEIKR"
unit_annotation = "pM"
quantitative_readout = 80.6

[[record]]
binder = "AB1370026 hIgG1 (antibody, V domains shown) VH: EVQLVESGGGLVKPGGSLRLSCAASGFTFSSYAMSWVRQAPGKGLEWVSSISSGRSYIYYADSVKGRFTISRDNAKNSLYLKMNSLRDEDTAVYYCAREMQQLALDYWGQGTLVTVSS VL: DIQMTQSPSSLSASVGDRVTITCRASQGISNFLAWFQQAPGKAPKSLIYAASSLQSGVPSKFSGSGSGTDFTLTISSLQPEDFATYYCQQYNSYPFTFGQGTKLEIKR"
unit_annotation = "pM"
quantitative_readout = 177

[[record]]
binder = "AB1370035 hIgG1 (antibody, V domains shown) VH: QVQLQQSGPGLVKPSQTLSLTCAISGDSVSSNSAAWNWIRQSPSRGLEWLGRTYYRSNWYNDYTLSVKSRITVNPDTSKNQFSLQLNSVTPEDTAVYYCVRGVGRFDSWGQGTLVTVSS VL: DIQMTQSPSTLSASVGDRVIITCRASQSISSWLAWYQQKPGKAPKLLIYKASSLESGVPSRFSGSGSGTEFTLTITSLQPDDFASYYCQEYKTYSIFTFGPGTKVDIKR"
unit_annotation = "pM"
quantitative_readout = 1460


This collection of values is drawn from patent US20230295293A1.
